Sourced from patent US20140179593A1

target: T1, hDcn1^P (potentiating neddylation / PONY domain of human Dcn1, DCUN1D1) (Homo sapiens, UniProt Q96GG9 62-259); assay: ITC, peptide titrated into Dcn PONY domain
T1 construct: also called DCUN1D1^P; SCCRO PONY domain
T1 sequence (Q96GG9 62-259): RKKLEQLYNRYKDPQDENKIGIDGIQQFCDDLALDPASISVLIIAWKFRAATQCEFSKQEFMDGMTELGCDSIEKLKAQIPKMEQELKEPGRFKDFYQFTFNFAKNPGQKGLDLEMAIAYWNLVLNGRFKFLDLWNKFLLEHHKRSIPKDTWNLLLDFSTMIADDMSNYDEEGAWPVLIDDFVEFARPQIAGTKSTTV
Positions of bridges follow the written chain, without caps; N, C: chain ends. Non-standard residues stand in square brackets, D forms with d. S5 = C=CCCC[C@](C)(N)C(=O)O; Nle = CCCC[C@H](N)C(=O)O
Assay Endpoint: Kd (nM)

Binder | U | Observed
Ac-MLKLRQLQKKKQKENENSSSIQPN-NH2 (Synthetic peptide of the N-terminus of yeast Ubc12; also called Acetyl-yUbc12^1-24) [yUbc12^Ac1-24] | nM | 311
Ac-[Nle]IKL[S5]SLK[S5]QKK-NH2 (staple 5-9; SMILES CCCC[C@H](NC(C)=O)C(=O)N[C@H](C(=O)N[C@@H](CCCCN)C(=O)N[C@@H](CC(C)C)C(=O)N[C@@]1(C)CCCC=CCCC[C@@](C)(C(=O)N[C@@H](CCC(N)=O)C(=O)N[C@@H](CCCCN)C(=O)N[C@@H](CCCCN)C(N)=O)NC(=O)[C@H](CCCCN)NC(=O)[C@H](CC(C)C)NC(=O)[C@H](CO)NC1=O)[C@@H](C)CC, Stapled synthetic peptide) [hUbc12^Ac1-12 (NorLeu) 5, 9] | nM | 440
Ac-[Nle]LKLR[S5]LQK[S5]KQ-NH2 (staple 6-10; SMILES CCCC[C@H](NC(C)=O)C(=O)N[C@@H](CC(C)C)C(=O)N[C@@H](CCCCN)C(=O)N[C@@H](CC(C)C)C(=O)N[C@@H](CCCNC(=N)N)C(=O)N[C@@]1(C)CCCC=CCCC[C@@](C)(C(=O)N[C@@H](CCCCN)C(=O)N[C@@H](CCC(N)=O)C(N)=O)NC(=O)[C@H](CCCCN)NC(=O)[C@H](CCC(N)=O)NC(=O)[C@H](CC(C)C)NC1=O) [yUbc12^Ac1-12 (NorLeu) 6, 10] | nM | 68
Ac-MIKLFKLKQEKK-NH2 (bridge 6-10; also: K6-E10 staple, chemistry not given here, Stapled synthetic peptide) [hUbc12^Ac1-12 (Met) KE 6, 10] | nM | 483
